- Test system: Dirofilaria immitis microfilariae
- assayMethodText: In Vitro Assay 2: Dirofilaria immitis microfilariae (DIROIM L1) motility
- Format: cell-based
- measurementContext: 72 h, read-out: EC50 ppm
valueKind: EC50 (µg/mL)
Supply the numeric figure in µg/mL, leaving out any unit text.

# annotated cases, reported EC50 shown
compoundStructureString | experimentalTarget | unitText | EC50
O=C(N[C@H]1CCc2ccccc21)c1ccc2nc(-c3cccc(C(F)(F)F)c3Cl)cnc2c1 | Dirofilaria immitis microfilariae | µg/mL | 0.44
O=C(N[C@H]1CCOc2ccccc21)c1ccc2c(-c3cccc(Cl)c3Cl)cccc2c1 | Dirofilaria immitis microfilariae | µg/mL | 0.63
O=C(N[C@H]1CCc2ccccc21)c1ccc2nc(-c3ccccc3Cl)cnc2c1 | Dirofilaria immitis microfilariae | µg/mL | 0.61
CC(C)c1c(C(=O)N[C@H]2CCOc3ccccc32)nc2c(-c3cccc(Cl)c3Cl)cccn12 | Dirofilaria immitis microfilariae | µg/mL | 0.63

Now, please, on to the next compound.
## Task I have this compound here, O=C(N[C@H]1CCOc2ccccc21)c1ccc2nc(-c3ccccc3Cl)cnc2c1 , and I need its recorded EC50.
## Result 1.95

====

- Tested on: Dirofilaria immitis microfilariae
- assayMethodText: In Vitro Assay 2: Dirofilaria immitis microfilariae (DIROIM L1) motility
- Assay type: cell-based
- measurementContext: 72 h, read-out: EC50 ppm
valueKind: EC50 (µg/mL)
Entry rule: numbers only, all in µg/mL.

Reference set (3 entries):
compoundStructureString | valueObserved
CN(C)c1c(C(=O)N[C@H]2CCOc3ccccc32)sc2c(-c3cccc(Cl)c3Cl)cccc12 | 0.11
CC(C)n1c(C(=O)N[C@H]2CCOc3ccccc32)cc2c(-c3cc(Cl)cc(Cl)c3)cccc21 | 0.06
O=C(N[C@H]1CCOc2ccccc21)c1sc2c(-c3cc(Cl)cc(Cl)c3)ccc(F)c2c1N1CCOCC1 | 0.27

## Task Quick check: EC50 of COc1c(C(=O)N[C@H]2CCOc3ccccc32)sc2c(-c3cccc(Cl)c3)cccc12 ?
## Result 0.37

====

- System: Dirofilaria immitis microfilariae
- assayMethodText: In Vitro Assay 2: Dirofilaria immitis microfilariae (DIROIM L1) motility
- Format: cell-based
- measurementContext: 72 h, read-out: EC50 ppm
valueKind: EC50

compoundStructureString | EC50
CC(C)c1c(C(=O)N[C@H]2CCc3ccccc32)ccc2c1nnn2-c1ccccc1 | > 2 µg/mL
CC(C)C1=C(C(=O)N[C@H]2CCOc3ccccc32)COc2c1cccc2-c1cc(Cl)cc(Cl)c1 | < 0.0032 µg/mL

# ---- query compound ----
## Task Would you kindly share the measured EC50 for CN(C)c1c(C(=O)N[C@H]2CCOc3ccccc32)ncc2c1ccc(=O)n2Cc1ccc(Cl)cc1 ?
## Result > 2 µg/mL

====

Here's a batch of compounds along with measured EC50 for C. elegans Slo-1a (Caenorhabditis elegans).
Enter your answer as a number in nM; do not include the unit.

compoundStructureString | experimentalTarget | valueKind | valueObserved
CN(C)c1c(C(=O)N[C@H]2CCOc3ccccc32)cnc2c1n(C)c(=O)n2-c1cc(Cl)cc(Cl)c1 | C. elegans Slo-1a (Caenorhabditis elegans) | EC50 | 100

## Task Lab note: need EC50 for Cc1nn(-c2c(F)cccc2F)c2ncc(C(=O)N[C@H]3CCOc4ccccc43)c(N(C)C)c12 on C. elegans Slo-1a (Caenorhabditis elegans), anyone have it?
## Result 158

## Task Item: O=C(N[C@H]1CCc2ccccc21)c1ccc2nc(-c3ccccc3Cl)cnc2c1 Test system: C. elegans Slo-1a (Caenorhabditis elegans) Read-out: EC50 Value: ?
## Result 100

====

- System: Dirofilaria immitis microfilariae
- assayMethodText: In Vitro Assay 2: Dirofilaria immitis microfilariae (DIROIM L1) motility
- Type: cell-based
- measurementContext: 72 h, read-out: EC50 ppm
# EC50 values compiled below

Consider the following illustrative entries.
molecule | valueKind | valueObserved
CC(C)c1c(C(=O)N[C@H]2CCc3ccccc32)ccc2c1nnn2-c1cccc(Cl)c1 [Example Compound S4-8] | EC50 | > 2 µg/mL
CN(C)c1c(C(=O)N[C@H]2CCOc3ccccc32)cnc2c1cnn2-c1c(F)cccc1F [Example Compound S4-5] | EC50 | > 2 µg/mL

Now for the molecule whose EC50 we want.
## Task Fill in the blank: the reported EC50 of CC(C)c1c(C(=O)N[C@H]2CCOc3ccccc32)c(=O)oc2c(-c3cc(Cl)cc(Cl)c3)cccc12 [Example Compound S8a-2] is ____.
## Result < 0.0032 µg/mL

// provenance: patent US12435068B2
